target: PTP1B (Homo sapiens, UniProt P18031, C32S/C92V/K197C)
Construct: residues 1–321
Sequence (P18031 1-321 C32S/C92V/K197C): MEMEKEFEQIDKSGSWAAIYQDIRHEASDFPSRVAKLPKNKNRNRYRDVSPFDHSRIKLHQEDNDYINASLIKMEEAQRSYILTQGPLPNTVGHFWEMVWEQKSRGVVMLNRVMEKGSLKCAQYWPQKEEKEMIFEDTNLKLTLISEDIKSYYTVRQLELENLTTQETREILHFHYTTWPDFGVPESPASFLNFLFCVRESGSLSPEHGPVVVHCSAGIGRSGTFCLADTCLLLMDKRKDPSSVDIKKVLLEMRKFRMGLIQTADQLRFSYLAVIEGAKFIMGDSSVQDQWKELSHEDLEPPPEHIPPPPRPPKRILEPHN
test_summary: crystal structure of tethered complex ([…] Å); mass-spectrometry tethering EC50 […]; pNPP inhibition Ki
value_type: Ki (µM)
Provide only the numeric value, understood in µM.

stdin: Quick one: give measured Ki for "CN(C)CCSSCC(=O)Nc1cc(-c2ccc(F)cc2F)ccc1O"
stdout: 7.1

Data origin, for the record: paper PMC6039181
